# System: hypoxia response element (HRE) firefly luciferase reporter in HT1080 cells
# Experiment Notes: HRE luciferase reporter assay
# Format: cell-based
# Condition: Homo sapiens, HT-1080, 16 h, read-out: EC50 HRE luciferase reporter, HT1080 cells, 16 hours treatment
pEC50: −log10 of the molar value.

- Compound: "Cc1nc(C(=O)NCC(=O)O)c(O)c2ccc(Oc3ccccc3)cc12"
  pEC50: 5.15

###

# Measured Target: OGFOD1 (Homo sapiens, UniProt Q8N543)
# Construct: made in house
# Sequence (Q8N543 whole entry): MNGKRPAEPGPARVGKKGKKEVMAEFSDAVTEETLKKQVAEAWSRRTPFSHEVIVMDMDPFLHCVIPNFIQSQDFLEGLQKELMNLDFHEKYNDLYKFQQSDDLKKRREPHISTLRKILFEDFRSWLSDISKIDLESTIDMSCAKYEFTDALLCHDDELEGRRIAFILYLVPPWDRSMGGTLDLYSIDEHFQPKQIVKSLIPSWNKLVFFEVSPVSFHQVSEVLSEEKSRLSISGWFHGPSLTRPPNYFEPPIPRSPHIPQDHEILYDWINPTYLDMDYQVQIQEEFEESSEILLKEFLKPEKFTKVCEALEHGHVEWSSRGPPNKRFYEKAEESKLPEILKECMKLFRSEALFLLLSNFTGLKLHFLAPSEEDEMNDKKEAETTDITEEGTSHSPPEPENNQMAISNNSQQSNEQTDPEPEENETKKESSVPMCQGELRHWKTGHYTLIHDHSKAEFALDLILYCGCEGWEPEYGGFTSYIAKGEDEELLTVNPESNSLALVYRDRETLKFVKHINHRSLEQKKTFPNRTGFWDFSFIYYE
# Experiment Notes: MALDI-TOF MS OGFOD1 hydroxylation assay
# Assay type: biochemical
Reported Endpoint: IC50 (nM)

- Compound: "O=C(O)CNC(=O)C1C(=O)N(C2CCCCC2)C(=O)N(C2CCCCC2)C1=O"
  Unit String: "nM"
  Recorded Result: 2100

###

# Measured Target: JARID1A (KDM5A) (Homo sapiens, UniProt P29375)
# Sequence (P29375 12-797 limits assumed): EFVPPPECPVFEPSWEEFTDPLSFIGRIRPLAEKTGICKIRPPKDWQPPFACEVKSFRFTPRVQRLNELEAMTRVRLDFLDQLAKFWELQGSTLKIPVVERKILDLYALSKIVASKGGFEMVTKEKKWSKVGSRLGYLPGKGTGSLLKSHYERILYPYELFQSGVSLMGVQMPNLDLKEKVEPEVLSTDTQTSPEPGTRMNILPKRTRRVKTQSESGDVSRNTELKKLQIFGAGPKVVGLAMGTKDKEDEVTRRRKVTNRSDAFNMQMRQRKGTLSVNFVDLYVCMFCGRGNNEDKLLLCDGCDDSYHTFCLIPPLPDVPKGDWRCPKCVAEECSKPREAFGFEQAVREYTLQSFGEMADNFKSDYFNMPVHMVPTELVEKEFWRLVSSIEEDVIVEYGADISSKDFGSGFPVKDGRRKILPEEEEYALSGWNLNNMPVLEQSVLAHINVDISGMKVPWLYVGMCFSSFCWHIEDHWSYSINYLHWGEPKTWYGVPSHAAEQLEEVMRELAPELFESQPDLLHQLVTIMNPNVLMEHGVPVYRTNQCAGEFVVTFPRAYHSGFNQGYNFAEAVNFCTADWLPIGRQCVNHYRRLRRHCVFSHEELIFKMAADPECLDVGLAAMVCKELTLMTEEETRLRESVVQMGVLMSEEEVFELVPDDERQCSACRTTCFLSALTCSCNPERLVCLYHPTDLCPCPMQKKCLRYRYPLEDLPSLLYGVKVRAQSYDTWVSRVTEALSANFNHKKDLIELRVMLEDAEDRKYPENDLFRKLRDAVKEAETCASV
# Experiment Notes: AlphaScreen histone demethylase assay
# Assay type: biochemical
# Condition: read-out: IC50 JARID1A (KDM5A)

- Compound: "O=C(O)CNC(=O)c1ncc(-c2cccc(Cl)c2)cc1O"
  Measured Target: "JARID1A (KDM5A) (Homo sapiens, UniProt P29375)"
  IC50: "> 100 µM"
- Compound: "CC(C)(C)OC(=O)c1ccc(-n2[nH]cc(-n3ccnn3)c2=O)nc1"
  Measured Target: "JARID1A (KDM5A) (Homo sapiens, UniProt P29375)"
  IC50: "53 µM"
- Compound: "Cc1nc(C(=O)NCC(=O)O)c(O)c2ccc(Oc3ccccc3)cc12"
  Measured Target: "JARID1A (KDM5A) (Homo sapiens, UniProt P29375)"
  IC50: "> 100 µM"
- Compound: "O=c1c(-n2ccnn2)c[nH]n1-c1cc(N2CCOCC2)ncn1"
  Measured Target: "JARID1A (KDM5A) (Homo sapiens, UniProt P29375)"
  IC50: "> 100 µM"
